- Tested on: SK-MEL-28
- PROTOCOL_SUMMARY: NCI tumour cell line growth inhibition, 48 h
The source made the active and inactive calls. Rule as the data show it: active = GI50 up to about 1.1 µM and inactive = higher.
GI50 for assorted compounds

COMPOUND	GI50
Cc1noc(C)c1-n1nc2ccc3nonc3c2n1	> 100 µM (inactive)
CSc1nc(NC2OC(COC(C)=O)C(OC(C)=O)C(OC(C)=O)C2OC(C)=O)c(/N=C/C=N/c2c(NC3OC(COC(C)=O)C(OC(C)=O)C(OC(C)=O)C3OC(C)=O)nc(SC)[nH]c2=O)c(=O)[nH]1 (stereo not given)	> 100 µM (inactive)
O=C1NC2(CCCC2)C2CCCCC12O (stereo not given)	> 100 µM (inactive)
Clc1ccc(/C=C/c2nc3ccccc3s2)cc1Cl	> 100 µM (inactive)
[O-][S+]1CSSC1	27.4 µM (inactive)

* * *

- Test system: T47D
- PROTOCOL_SUMMARY: NCI tumour cell line growth inhibition, 48 h
The source made the active and inactive calls. No stated cut-off is given here; in the data, active = GI50 up to about 1.1 µM and inactive = higher.
Classes used: active, inactive

COMPOUND	CLASS
COc1cc(C2c3cc4c(cc3OC(NN)C2C)OCO4)cc(OC)c1O (stereo not given)	inactive
Cc1ccc(/N=N/c2ccc(N)cc2C)c(S(N)(=O)=O)c1	inactive
COc1ccc(NC(=S)c2ccc(CN3CCCCC3)s2)cc1	inactive
Cc1nc([N+](=O)[O-])cn1-c1nc2ccccn2c1[N+](=O)[O-]	inactive
CN(C)c1ccc(/C=C2\Oc3cc(O)ccc3C2=O)cc1	inactive
CC1OC(OC2C(O)COC(OC3C(C)OC(OC4C(OC(=O)[C@]56CCC(C)(C)C[C@@H]5C5=CCC7[C@@]8(C)C[C@H](O)[C@H](OC9OC(CO)C(O)C(OC%10OC(CO)C(O)C(O)C%10O)C9O)[C@@](C)(CO)[C@@H]8CC[C@@]7(C)[C@]5(C)CC6)OCC(O)C4O)C(O)C3OC3OCC(O)C(O)C3O)C2O)C(O)C(O)C1O (stereo not given in full)	inactive
CN(/N=C/c1ccc(Cl)c(Cl)c1)C1=NCCCCN1	inactive
O=c1oc2ccccc2c2c1Sc1ccccc1N2	active
Cc1cc(O)c2cc3c(O)c(O)ccc3cc2c1	inactive
C[C@@H](c1ccccc1)C(CC#N)[C@H]1CCC[C@]1(O)C#Cc1ccc2c(c1)OCO2 (stereo not given in full)	inactive
CC1=C(C)SC(=C2Sc3c(n(C)c(=O)[nH]c3=O)S2)S1	inactive
CC(=O)C12C[C@](C#N)(N3CCCCCC3)C1C=Cc1ccccc12 (stereo not given in full)	inactive
O=C(Nc1ccc(Cl)cc1)c1cc(S(=O)(=O)N2CCNNC2=O)c(S)cc1Cl	inactive
CCC(=O)NC(Nc1cccc(F)c1C)(C(F)(F)F)C(F)(F)F	inactive
C/C(=N\Nc1nc2ccccc2[nH]1)c1cnccn1	active
Cc1cccc2c(N)c3cccc(C(=O)NCC[N+](C)(C)Cc4ccc(S(C)(=O)=O)cc4)c3nc12	inactive
CNC(=S)N(C1CCCCC1)C1CCCCC1	inactive
[O-][S+](C(c1ccccc1)=P(c1ccccc1)(c1ccccc1)c1ccccc1)c1ccc(Cl)cc1 (stereo not given)	inactive
CCOC(=O)c1nnsc1NC(=O)NCCCCCCn1c(=O)n(CCCCCCNC(=O)Nc2snnc2C(=O)OCC)c(=O)n(CCCCCCNC(=O)Nc2snnc2C(=O)OCC)c1=O	inactive
[O-][S@@+]1c2ccc3ccccc3c2N[C@@H]2[C@H]1[C@H]1C=C[C@@H]2C1	inactive

* * *

- System: SF-268
- PROTOCOL_SUMMARY: NCI tumour cell line growth inhibition, 48 h
The source made the active and inactive calls. Cut-off read from the data, not from the text of the source: active = GI50 up to about 1.1 µM and inactive = higher.
Classes used: 1.0 = active, 0.0 = inactive

                                   compound  class
0     CN(C)c1ccc(/C=C2\Oc3cc(O)ccc3C2=O)cc1    0.0
1  CCCCCCCCCCCCCCCC(=O)Nc1ccn(C2CCC(COP(=O)(O)OCC3OC(n4cc(F)c(=O)[nH]c4=O)CC3OC(C)=O)O2)c(=O)n1 (stereo not given)    0.0
2  CC1=C(N2CC2)C(=O)c2nc3n(c2C1=O)CCC3O (stereo not given)    1.0
3  CC1(C)CC2(C)OC(=N)C1(C#N)C2(C#N)C#N (stereo not given)    0.0
4         Nc1ccc2c(c1)CN1C(=O)c3ccccc3C1=N2    0.0
5         C/C(=N\Nc1nc2ccccc2[nH]1)c1cnccn1    1.0
6           O=C1NC(N2CCOCC2)=N/C1=C\c1ccco1    0.0
7  Cc1ccc(S(=O)(=O)N(/N=C/C=C/c2ccccc2)c2nnc(-c3ccccc3)c(-c3ccccc3)n2)cc1    0.0
8  CN1C(c2ccccc2)CC(=NOCc2ccccc2)CC1c1ccccc1 (stereo not given)    0.0
9  COC(=O)C(CNC(=O)/C=C/c1ccc(OC(C)=O)c(OC(C)=O)c1)NC(=O)/C=C/c1ccc(OC(C)=O)c(OC(C)=O)c1 (stereo not given)    0.0

* * *

- Test system: K562
- PROTOCOL_SUMMARY: NCI tumour cell line growth inhibition, 48 h
Calls of active or inactive are those of the source. No stated cut-off is given here; in the data, active = GI50 up to about 1.1 µM and inactive = higher.
QUANTITY_KIND: GI50

>>> df
                                   compound               result
0  COC(=O)C(C(=O)C(=O)Nc1c(C)cccc1C)c1cnc2ccccc2n1 (stereo not given)  > 100 µM (inactive)
1  C=C(C(=O)OC)[C@@H]1C[C@@H](OC(C)=O)C2=C[C@H](C[C@@]3(C)O[C@@H]3C3=CC(C)=C(O3)[C@H]1OC(C)=O)OC2=O [BIPINNATIN I]   6.84 µM (inactive)
2  C[N+](C)(C)CC1Cc2ccccc2C1=O (stereo not given)    1.4 µM (inactive)
3  O=C1CC(CC(=O)C2CCCCC2=O)C(=O)N1 (stereo not given)  > 100 µM (inactive)
4  COC(=O)/C(=N\NC(=O)C[N+](C)(C)C)C(C(=O)OC)C(=O)C(=O)Nc1ccccc1C(N)=O (stereo not given)  > 100 µM (inactive)
5       CN(/N=C/c1ccc(Cl)c(Cl)c1)C1=NCCCCN1   21.4 µM (inactive)
6               O=c1ccc2nc3cc(Br)ccc3sc-2c1   22.4 µM (inactive)
7  Cc1ccc(-c2cc(-c3ccco3)c(C#N)c(=O)n2C2OC(OC(=O)c3ccccc3)C(OC(=O)c3ccccc3)C2OC(=O)c2ccccc2)cc1 (stereo not given)  > 100 µM (inactive)
8                  O=c1[nH]c2nccn2c2c1SCCN2  > 100 µM (inactive)
9  CCC/N=C1\S/C(=C/c2ccc(OC)c(OC)c2)C(=O)N1c1ccccc1  > 100 µM (inactive)

* * *

- Test system: Malme-3M
- PROTOCOL_SUMMARY: NCI tumour cell line growth inhibition, 48 h
The source made the active and inactive calls. Rule as the data show it: active = GI50 up to about 1.1 µM and inactive = higher.
GI50 for assorted molecules
QUANTITY_KIND: GI50

In [3]: df
Out[3]:
                                   molecule  quantity_kind               result
0       COC(=O)c1ccc(CCc2cc(O)c(Br)cc2O)cc1           GI50   15.7 µM (inactive)
1         Nc1ccc2c(c1)CN1C(=O)c3ccccc3C1=N2           GI50     67 µM (inactive)
2  CC(=O)O[C@]12CCCCCC1C1(O)C(O)CCC[C@H]12 (stereo not given in full)           GI50  > 100 µM (inactive)
3  C[C@@H]1OC2(O)[C@H]3CCCN3S(=O)(=O)CCN2C1=O (stereo not given in full)           GI50  > 100 µM (inactive)
4        COc1ccc([Se]c2ccc(OC)cc2OC)c(OC)c1           GI50   14.9 µM (inactive)
5  OCCNC1c2cc(Cl)ccc2-c2c(Cl)cc(Cl)cc21 (stereo not given)           GI50  > 100 µM (inactive)
6  O=C(COc1ccc2c(=O)cc(-c3ccccc3)oc2c1)N1CCN(c2ccccc2)CC1           GI50   51.6 µM (inactive)
7  CC(=O)N1C(c2[nH]c3ccccc3c2-c2ccccc2)CCN1c1ccccc1 (stereo not given)           GI50   > 10 µM (inactive)
8  c1ccc(/N=C2\SC(c3ccccc3)CN2C23CC4CC(CC(C4)C2)C3)cc1 (stereo not given)           GI50  > 100 µM (inactive)
9  COc1cc(C2c3cc4c(cc3[C@@H](Nc3ccc5c(c3)OCO5)C3COC(=O)[C@H]23)OCO4)cc(OC)c1O (stereo not given in full)           GI50   1.42 µM (inactive)

* * *

GI50 for assorted compounds
- Tested on: NCI-H522
- PROTOCOL_SUMMARY: NCI tumour cell line growth inhibition, 48 h
Active and inactive are the calls of the source. Cut-off read from the data, not from the text of the source: active = GI50 up to about 1.1 µM and inactive = higher.
QUANTITY_KIND: GI50

                                   compound               result
0  Clc1ccc(-c2nnc(C34CC5CC(CC(C5)C3)C4)o2)cc1  > 100 µM (inactive)
1  O=C1O/C(=C(/Cl)c2c3ccccc3cc3ccccc23)c2ccccc21   29.8 µM (inactive)
2  O=C1OCC(C(=O)c2cccc(O)c2)C1=O (stereo not given)  > 100 µM (inactive)
3  CNCC(=O)Nc1ccc2c(c1)C(=O)c1ccc(NC(=O)CNC)cc1C2=O   1.59 µM (inactive)
4  COc1cccc2c1C(=O)c1c(O)c3c(c(O)c1C2=O)CC(O)(C(C)=O)CC3OC1OC(COC(C)=O)C(OC(C)=O)C(OC(C)=O)C1OC(C)=O (stereo not given)  > 100 µM (inactive)
